Provide the reported Ki of each item.
- SUBJECT OF TEST: sulfate adenylyl transferase (Sat) / ATP sulfurylase (Oleidesulfovibrio alaskensis, UniProt Q30Z34)
- Sequence (Q30Z34 1-427): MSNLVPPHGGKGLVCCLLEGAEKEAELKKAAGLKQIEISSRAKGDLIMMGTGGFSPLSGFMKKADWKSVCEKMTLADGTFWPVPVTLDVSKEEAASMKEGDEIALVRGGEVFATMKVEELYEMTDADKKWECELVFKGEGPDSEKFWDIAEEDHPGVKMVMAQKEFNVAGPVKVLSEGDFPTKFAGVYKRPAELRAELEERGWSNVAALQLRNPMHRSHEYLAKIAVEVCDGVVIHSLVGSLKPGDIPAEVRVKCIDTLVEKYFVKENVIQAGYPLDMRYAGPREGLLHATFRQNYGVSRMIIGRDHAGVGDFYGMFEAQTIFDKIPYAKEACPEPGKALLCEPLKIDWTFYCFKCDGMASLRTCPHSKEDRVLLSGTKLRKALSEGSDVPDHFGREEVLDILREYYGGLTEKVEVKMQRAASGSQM
- ASSAY NOTES: pyrophosphate accumulation, modified molybdenum blue assay
Give the number; mM is assumed, so skip it.

What value of measured Ki is listed for [O-][Cl+2]([O-])O ?
0.316

Try this compound next: O=[N+]([O-])O
3.6
